Tested on: SR leukemia
protocol_description: NCI-60 one-dose screen, 48 h (100 = growth as untreated, 0 = no growth, -100 = all killed)
recorded_conditions: 10 µM unless noted
The panel holds about 83,000 compounds, 20% with a hit somewhere; the sample as a whole holds those more often.
endpoint_label: growth (%)
Expressed in %, but write only the number.

{"compound": "Cc1ccc2nc(Cl)c(Cn3nnnc3SCc3ccccc3)cc2c1", "subject_of_test": "SR leukemia", "result_units": "%", "value_measured": 80}

Ask: Query: growth; subject: O=C(CCCCNC(=O)c1cc(=O)c(O)co1)Nc1ccccc1
Reply: 14.3

Ask: Same for O=c1ccc2nc(C(F)(F)F)nn(-c3ccccc3)c-2c1
Reply: -11.3

Ask: Same for Cc1c2cnccc2c(C)c2c1c1cc(C3OCCCO3)ccc1n2C
Reply: 4.22

Ask: Same for COc1ccc2nc3cc(Cl)ccc3c(NCCN)c2c1
Reply: -45.4

Ask: Same for O=C(O)C1CN(c2cccc(Cl)c2)N(c2cccc(Cl)c2)C1=O (centres undefined)
Reply: 85

Ask: Same for O=C(CSc1nc2ccc([N+](=O)[O-])cc2[nH]1)Nc1cccc([N+](=O)[O-])c1
Reply: 41.1

Ask: Same for O=C(Nc1ccccc1)c1sc(-c2ccccc2)cc1O
Reply: 70.4

###

Test system: MCF7 breast
protocol_description: NCI-60 one-dose screen, 48 h
recorded_conditions: 10 µM unless noted
This is part of a sample that, as a whole, favours compounds with a hit. Of some 83,000 tested, about 20% had one in any assay. The source made the active and inactive calls. The calls were made as follows: active = growth percent below 10; inactive = the rest.
API: response.call in 1 (yes) (active), 0 (no) (inactive)

Examples from the recorded data:
{"compound": "O=C1Nc2ccc(F)cc2/C1=N/c1nnc(Sc2ccccc2)s1", "assigned_class": "0 (no)"}
{"compound": "NC(=S)N/N=C/c1cn(-c2ccccc2)nc1-c1cc2ccccc2oc1=O", "assigned_class": "0 (no)"}
{"compound": "CN1CCN(Cc2ccc(NC(=O)c3cncc(C#Cc4cncc5ncccc45)c3)cc2C(F)(F)F)CC1", "assigned_class": "0 (no)"}
{"compound": "Cc1ccc(N=Nc2c(N)nn(-c3ccccc3)c2N)cc1", "assigned_class": "1 (yes)"}
{"compound": "C=C1C(=O)O[C@H]2[C@H]1CC/C(COC(=O)/C=C\\C(=O)NCc1ccc(Cn3c(=O)sn(-c4ccccc4)c3=O)cc1)=C\\CC[C@@]1(C)O[C@@H]21", "assigned_class": "0 (no)"}

Ask: Recorded test outcome, item O=C(CN1C(=O)NC2NC(=O)NC21)N/N=C/c1ccc(Cl)cc1Cl (centres undefined)
Reply: 0 (no)

Ask: Same for Cn1c(O)c(C(/C=C/c2ccccc2)=Nc2ccccc2N)c(=O)n(C)c1=O
Reply: 0 (no)

Ask: Same for COc1cc(/C=C/c2cc(/C=C/c3ccc(O)c(OC)c3)n(C(=O)Nc3ccc(F)cc3)n2)ccc1O
Reply: 1 (yes)

Ask: Same for COc1cc2nc(Nc3cccc(F)c3)nc(Nc3cc(C)[nH]n3)c2cc1OC
Reply: 1 (yes)

Ask: Same for CNCc1cccc2c1OCCOCCN(C)C(=O)CN(C)S(=O)(=O)c1ccc(cc1)-c1cnc(N)c(n1)C(=O)N2
Reply: 0 (no)

###

Tested on: NCI-H522 lung
protocol_description: NCI-60 one-dose screen, 48 h (100 = growth as untreated, 0 = no growth, -100 = all killed)
recorded_conditions: 10 µM unless noted
This is part of a sample that, as a whole, favours compounds with a hit. Of some 83,000 tested, about 20% had one in any assay.
Please use MET for growth under 40% and NOT MET for everything else, ties included.

Examples from the recorded data:
{"compound": "COc1cc2cc(NCc3ccc(OC(F)F)cc3)nc(C)c2cc1OC", "subject_of_test": "NCI-H522 lung", "assigned_class": "NOT MET"}
{"compound": "N#C/C(=C\\c1ccc(Cl)cc1Cl)C(=O)Nc1ncc(Cc2ccc(Cl)c(Cl)c2)s1", "subject_of_test": "NCI-H522 lung", "assigned_class": "NOT MET"}
{"compound": "COc1ccc(C2=CN3CC=CCC3CC2=O)cc1 (centres undefined)", "subject_of_test": "NCI-H522 lung", "assigned_class": "NOT MET"}

Ask: Quick check: does COc1ccc(C2=Nc3c(N)ncnc3NC(c3cccc(Nc4ccnc5cc(C(F)(F)F)ccc45)c3)C2)cc1 (centres undefined) have growth under 40%?
Reply: NOT MET

Ask: Same for CC(C)(C)c1cc(C=Nc2cccc(C(F)(F)F)c2)c(O)c(C(C)(C)C)c1
Reply: NOT MET

Ask: Same for O=C(CCCCCCN1CC(=O)N2[C@@H](c3ccc(Cl)cc3)c3[nH]c4ccccc4c3C[C@H]2C1=O)NO
Reply: MET

Ask: Same for CN1CCN(Cc2ccc(NC(=O)c3cncc(C#Cc4cncc5[nH]ncc45)c3)cc2C(F)(F)F)CC1
Reply: MET

###

Test system: SNB-19 CNS
protocol_description: NCI-60 one-dose screen, 48 h
recorded_conditions: 10 µM unless noted
This is part of a sample that, as a whole, favours compounds with a hit. Of some 83,000 tested, about 20% had one in any assay. Active and inactive are the calls of the source. How the source made its calls: active means growth percent below 10; inactive means the rest.
API: response.call in class 1 = active, class 0 = inactive

Examples from the recorded data:
{"molecule": "CCCCCCCCCCCCCCCCCCOc1ccccc1CC(=O)OCC[N+]1(C)CCOCC1", "assigned_class": "class 0"}
{"molecule": "C=CCCC(=O)N1C=CC(=O)[C@H](O)[C@@H]1/C=C/c1ccccc1", "assigned_class": "class 0"}
{"molecule": "COc1cc(C#Cc2ccc(=O)oc2C#Cc2ccccc2)cc(OC)c1OC", "assigned_class": "class 0"}
{"molecule": "CCCCCCCCn1ccc2cc(NC(=O)Cn3cc(CN4CCN(CC)CC4)nn3)ccc21", "assigned_class": "class 0"}
{"molecule": "CCc1ccc(CCC(=O)Nc2ncc(Cc3ccc(Cl)cc3)s2)o1", "assigned_class": "class 0"}

Ask: Recorded test outcome, item N/C(=N\c1nc2ccccc2s1)NC(=NC1CCCCC1)NC1CCCCC1
Reply: class 1

Ask: Same for COc1ccc(C(C)=O)cc1S(N)(=O)=O
Reply: class 0

Ask: Same for COc1ccc(C2=NN(C(C)=O)C(c3ccc(Oc4ccnc5cc(Cl)ccc45)c(OC)c3)C2)cc1 (configuration not stated)
Reply: class 0

Ask: Same for CCC(C)Nc1ccc(NC(C)CC)cc1 (configuration not stated)
Reply: class 0

Ask: Same for c1ccc(CNc2ccc3nc(CCC4CCCCC4)[nH]c3c2)cc1
Reply: class 0

Ask: Same for O=C(CSc1nnc2sc(Nc3cccc(Cl)c3)nn12)c1ccc(F)cc1
Reply: class 0

Ask: Same for CC[C@]12C=CCN3CC[C@@]4(c5ccc(OC)cc5N(C)[C@H]4[C@@](O)(C(=O)OC)[C@@H]1OC(=O)CCCN1CCOCC1)[C@@H]32
Reply: class 0

Ask: Same for Cc1[nH]c(C(=O)Nc2ccc(C(N)=O)cc2NC(C)C)c(Cl)c1Cl
Reply: class 0

Ask: Same for CCCCn1sc(=O)n(Cc2ccc(CNC(=O)OCc3ccc4c(Cl)cc(Cl)c(O)c4n3)cc2)c1=O
Reply: class 0

Ask: Same for C#CC#CC#CC#CC#CC#CC#CC#CC[C@H]1OC[C@@H](COC(=O)O[C@@H](C(=O)O[C@H]2C[C@@]3(O)[C@@H](OC(=O)c4ccccc4)[C@@H]4[C@]5(OC(C)=O)CO[C@@H]5C[C@H](O)[C@@]4(C)C(=O)[C@H](OC(C)=O)C(=C2C)C3(C)C)[C@@H](NC(=O)c2ccccc2)c2ccccc2)O1
Reply: class 0

###

Test system: HCT-116 colon
protocol_description: NCI-60 one-dose screen, 48 h (100 = growth as untreated, 0 = no growth, -100 = all killed)
recorded_conditions: 10 µM unless noted
This is part of a sample that, as a whole, favours compounds with a hit. Of some 83,000 tested, about 20% had one in any assay.
endpoint_label: growth (%)
Expressed in %, but write only the number.

Before answering, review these 10 worked examples.
{"compound": "O=C1CCCc2nc3sc4c(=O)n(-c5ccccc5Cl)nnc4c3cc21", "subject_of_test": "HCT-116 colon", "value_measured": 96}
{"compound": "CC1CN=C(c2cccc(-c3ccc(-c4ccccc4)o3)c2)N1 (stereo not given)", "subject_of_test": "HCT-116 colon", "value_measured": -67.9}
{"compound": "CCOc1ccc(NC(=O)c2cc(OC)c(OC)c(OC)c2)cc1", "subject_of_test": "HCT-116 colon", "value_measured": 18}
{"compound": "CNC(=O)c1c(NC(=O)c2ccc(C(C)(C)C)cc2)sc2c(CN(C)C)c(O)ccc12", "subject_of_test": "HCT-116 colon", "value_measured": -88.4}
{"compound": "Nc1c(C(=O)Nc2cccc3ncccc23)sc2nc3c(cc12)C(=O)CCC3", "subject_of_test": "HCT-116 colon", "value_measured": 44.1}
{"compound": "NNC(=S)N/N=C/c1ccccn1", "subject_of_test": "HCT-116 colon", "value_measured": 19.8}
{"compound": "CCCCc1oc2ccccc2c1C(=O)c1ccc(O)cc1", "subject_of_test": "HCT-116 colon", "value_measured": 83.2}
{"compound": "NC(=O)c1c(NC(=O)c2ccc(Cl)cc2)sc2c1CCC(=O)C2", "subject_of_test": "HCT-116 colon", "value_measured": 8.72}
{"compound": "CCCCn1sc(=O)n(Cc2ccc(CNC(=O)OCc3ccc4c(Cl)cc(Cl)c(O)c4n3)cc2)c1=O", "subject_of_test": "HCT-116 colon", "value_measured": 46.3}
{"compound": "COc1cc(C2Cc3ncccc3-c3[nH]c(=O)c4cccnc4c32)cc(OC)c1OC (stereo not given)", "subject_of_test": "HCT-116 colon", "value_measured": 13.8}

We now examine a further compound.
Ask: Query: growth; subject: Cn1ccnc1C(=O)/C=C/c1ccc(C(=O)Nc2ccc(F)cc2)cc1
Reply: -81.5
